# measured-target: hTSHR (Homo sapiens, UniProt P16473)
# Construct: expressed in transfected cells
# Sequence (P16473 21-764): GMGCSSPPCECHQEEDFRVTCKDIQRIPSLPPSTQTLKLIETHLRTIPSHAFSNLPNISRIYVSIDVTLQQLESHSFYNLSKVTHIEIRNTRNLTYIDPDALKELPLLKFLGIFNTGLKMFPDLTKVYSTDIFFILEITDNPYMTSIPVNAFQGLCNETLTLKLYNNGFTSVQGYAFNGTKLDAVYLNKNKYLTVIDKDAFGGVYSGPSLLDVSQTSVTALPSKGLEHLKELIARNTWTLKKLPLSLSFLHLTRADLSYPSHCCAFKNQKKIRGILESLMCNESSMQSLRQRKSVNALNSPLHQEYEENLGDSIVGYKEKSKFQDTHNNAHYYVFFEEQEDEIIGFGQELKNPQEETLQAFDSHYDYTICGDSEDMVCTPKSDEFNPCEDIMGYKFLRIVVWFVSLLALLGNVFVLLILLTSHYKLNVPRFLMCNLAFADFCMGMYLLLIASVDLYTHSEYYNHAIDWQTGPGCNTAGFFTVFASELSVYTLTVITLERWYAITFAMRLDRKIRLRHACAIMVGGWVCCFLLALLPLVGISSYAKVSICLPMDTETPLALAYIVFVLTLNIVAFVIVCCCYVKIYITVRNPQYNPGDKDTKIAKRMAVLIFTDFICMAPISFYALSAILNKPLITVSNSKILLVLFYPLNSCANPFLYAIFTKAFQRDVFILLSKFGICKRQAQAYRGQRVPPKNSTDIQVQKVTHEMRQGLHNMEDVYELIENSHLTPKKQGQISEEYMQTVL
# assay-text: hTSHR TR-FRET cAMP Assay (inhibition of M22-stimulated cAMP production)
# Type: cell-based
# test-context: Expi293F Inducible cells stably expressing hTSHR; cAMP HTRF; stimulated with EC80 of anti-TSHR antibody M22; 15 min compound preincubation, 30 min at 37° C.; read-out: Activity (IC50 bins)
pIC50: −log10 of the molar value.
reported-property: pIC50

molecule	reported-property	assay-result
COc1cccc(CN2C(=O)[C@@H](C)Oc3cc(NC(=O)NC(C)(C)C)ccc32)c1	pIC50	6.00 to 7.00
CC(C)(C)NC(=O)Nc1ccc2c(c1)OCC(=O)N2Cc1cccc(C(F)(F)F)c1	pIC50	> 7.00
CC(C)(C)NC(=O)Nc1ccc2c(c1)CCC(=O)N2Cc1cccc(C(F)(F)F)c1F	pIC50	> 7.00
C[C@H]1Oc2c(cc(F)c(NC(=O)NC(C)(C)C)c2F)N(Cc2cccc(OC(F)F)c2)C1=O	pIC50	> 7.00
C[C@@H](c1cccc([C@H](O)C(F)(F)F)c1)n1c(=O)cnc2cc(NC(=O)NC(C)(C)C)ccc21	pIC50	6.00 to 7.00
CC(C)(C)NC(=O)Nc1ccc2c(c1)CCC(=O)N2Cc1cc(C(F)(F)F)ccc1F	pIC50	> 7.00
CC(C)c1cccc([C@H](C)n2c(=O)cnc3cc(NC(=O)NC(C)(C)C)ccc32)c1	pIC50	6.00 to 7.00
CC(C)(C)NC(=O)Nc1ccc2c(c1)OCC(=O)N2Cc1cccc2cn[nH]c12	pIC50	< 6.00
C[C@@H](c1cccc(OC(F)(F)F)c1)n1c(=O)cnc2cc(NC(=O)NC3(C)CCCC3)ccc21	pIC50	6.00 to 7.00
COc1cccc([C@H](C)N2C(=O)[C@@H](C)Oc3cc(NC(=O)NC(C)(C)C)ccc32)c1	pIC50	6.00 to 7.00
C[C@H](c1cccc(Cl)c1)N1C(=O)CCc2nc(NC(=O)NC(C)(C)C)ccc21	pIC50	6.00 to 7.00
C[C@H]1Oc2cc(NC(=O)NC3(C)CCCCC3)ccc2N(Cc2cccc(C(F)(F)F)n2)C1=O	pIC50	> 7.00
C[C@@H](c1ccccc1)n1c(=O)cnc2cc(NC(=O)NC(C)(C)C)c(C(F)(F)F)cc21	pIC50	6.00 to 7.00
CC(C)(C)NC(=O)Nc1ccc2c(c1)ncc(=O)n2Cc1cccc2c1CCCO2	pIC50	6.00 to 7.00
CC(C)(C)NC(=O)Nc1ccc2c(c1)CCC(=O)N2Cc1ccc(F)cc1	pIC50	6.00 to 7.00
CC(C)(C)CNC(=O)Nc1ccc2c(c1)ncc(=O)n2Cc1cccc(OC(F)(F)F)c1	pIC50	6.00 to 7.00

###

# measured-target: hTSHR (Homo sapiens, UniProt P16473)
# Construct: expressed in transfected cells
# assay-text: hTSHR TR-FRET cAMP Assay (inhibition of M22-stimulated cAMP production)
# Assay type: cell-based
# test-context: Expi293F Inducible cells stably expressing hTSHR; cAMP HTRF; stimulated with EC80 of anti-TSHR antibody M22; 15 min compound preincubation, 30 min at 37° C.; read-out: Activity (IC50 bins)
reported-property: IC50

molecule	measured-target	assay-result
CC(C)CCNC(=O)Nc1ccc2c(c1)ncc(=O)n2[C@@H](C)c1cccc(OC(F)(F)F)c1	hTSHR (Homo sapiens, UniProt P16473)	100 to 1000 nM
CC(c1cccc(CCOCc2ccncc2)c1)n1c(=O)cnc2cc(NC(=O)NC(C)(C)C)ccc21 (stereo not shown)	hTSHR (Homo sapiens, UniProt P16473)	> 1000 nM
C[C@@H](c1cc(F)ccc1Cl)n1c(=O)cnc2cc(NC(=O)NC(C)(C)C)ccc21	hTSHR (Homo sapiens, UniProt P16473)	100 to 1000 nM
C[C@H]1Oc2cc(NC(=O)NC(C)(C)C)ccc2N(Cc2cccc(C(O)C(F)(F)F)c2)C1=O (stereo partly shown)	hTSHR (Homo sapiens, UniProt P16473)	< 100 nM
C[C@H](c1ccccc1)N1C(=O)COc2cc(NC(=O)NC(C)(C)C)ccc21	hTSHR (Homo sapiens, UniProt P16473)	100 to 1000 nM
CC(C)(C)NC(=O)Nc1ccc2c(c1)CCC(=O)N2Cc1ccccc1Cl	hTSHR (Homo sapiens, UniProt P16473)	100 to 1000 nM
CC(C)(C)NC(=O)Nc1ccc2c(c1Cl)CCC(=O)N2Cc1ccccc1	hTSHR (Homo sapiens, UniProt P16473)	100 to 1000 nM
C[C@@H](c1cccc(Cl)c1)n1c(=O)cnc2cc(NC(=O)NC3(C)CCC3)ccc21	hTSHR (Homo sapiens, UniProt P16473)	100 to 1000 nM
CC(C)(C)NC(=O)Nc1ccc2c(c1)CCC(=O)N2Cc1cc(Cl)ccc1Cl	hTSHR (Homo sapiens, UniProt P16473)	< 100 nM
Cc1ccc(C#N)c(CN2C(=O)[C@@H](C)Oc3cc(NC(=O)NC(C)(C)C)ccc32)c1	hTSHR (Homo sapiens, UniProt P16473)	> 1000 nM
C[C@@H](c1cccc(Cl)c1)n1c(=O)cnc2cc(NC(=O)NC(C)(C)C)c(F)cc21	hTSHR (Homo sapiens, UniProt P16473)	100 to 1000 nM
C[C@H]1Oc2cc(NC(=O)NC(C)(C)C)c(C#N)cc2N(Cc2cc(Cl)ccc2Cl)C1=O	hTSHR (Homo sapiens, UniProt P16473)	100 to 1000 nM
C[C@H]1Oc2cc(NC(=O)NC(C)(C)C)c(F)cc2N(Cc2cccc(C(F)F)c2)C1=O	hTSHR (Homo sapiens, UniProt P16473)	< 100 nM
C[C@H]1Oc2cc(NC(=O)NC(C)(C)C)c(C#N)cc2N(Cc2cccc(C(F)F)c2)C1=O	hTSHR (Homo sapiens, UniProt P16473)	< 100 nM
C[C@H]1Oc2cc(NC(=O)NC3(C)CC(F)(F)C3)ccc2N(Cc2cccc(C(F)(F)F)n2)C1=O	hTSHR (Homo sapiens, UniProt P16473)	100 to 1000 nM
C[C@H]1Oc2cc(NC(=O)NC(C)(C)C)ccc2N(Cc2cc(C(F)(F)F)ccn2)C1=O	hTSHR (Homo sapiens, UniProt P16473)	100 to 1000 nM

###

# measured-target: hTSHR (Homo sapiens)
# Construct: expressed in transfected cells
# assay-text: hTSHR TR-FRET cAMP Assay (inhibition of M22-stimulated cAMP production)
# Assay type: cell-based
# test-context: Expi293F Inducible cells stably expressing hTSHR; cAMP HTRF; stimulated with EC80 of anti-TSHR antibody M22; 15 min compound preincubation, 30 min at 37° C.; read-out: Activity (IC50 bins)
# Description: Assays were performed using Expi293F Inducible cells (Invitrogen) stably expressing hTSHR via a pcZeo TetO DNA plasmid. […] Assay-ready aliquots were prepared by harvesting each cell type separately 24-hours post-induction. Cells were pelleted at 4° C., resuspended in Expi293 Expression media+10% DMSO, aliquoted, and kept frozen at −80° C. until ready for use. […]
Below, each of the molecules is paired with its reported IC50 value.

molecule	IC50
CN1Cc2cc(NC(=O)NC(C)(C)C)ccc2N(Cc2ccccc2)C1=O	100 to 1000 nM
CC(C)(C)NC(=O)Nc1ccc2c(n1)CCC(=O)N2Cc1cccc(C(F)(F)F)c1	100 to 1000 nM
C[C@@H](c1ccc(F)c(OC(F)(F)F)c1)n1c(=O)cnc2cc(NC(=O)NC(C)(C)C)ccc21	< 100 nM
C[C@@H](c1cccc(OC(F)(F)F)n1)n1c(=O)cnc2cc(NC(=O)NC3(C)CCC3)ccc21	100 to 1000 nM
CC1Oc2nc(NC(=O)NC(C)(C)C)c(C(F)(F)F)cc2N(Cc2ccccc2)C1=O (stereo in doubt)	100 to 1000 nM
CC(c1cc(Cl)ccc1C#N)N1C(=O)COc2cc(NC(=O)NC(C)(C)C)ccc21 (stereo not shown)	> 1000 nM
C[C@H]1Oc2cc(NC(=O)NC(C)(C)C)ccc2N(Cc2ccccc2Cl)C1=O	100 to 1000 nM
C[C@@H](c1cccc(N2CCCCC2)c1)n1c(=O)cnc2cc(NC(=O)NC(C)(C)C)ccc21	100 to 1000 nM
CC(C)(C)NC(=O)Nc1ccc2c(n1)CCC(=O)N2Cc1ccccc1	100 to 1000 nM
C[C@@H](c1cccc(C(F)(F)F)n1)n1c(=O)cnc2cc(NC(=O)CCc3cccc(C(F)(F)F)c3)ccc21	100 to 1000 nM
C[C@@H](c1cccc(OC(F)(F)F)c1)n1c(=O)cnc2cc(NC(=O)NC(C)(C)C)c(F)cc21	100 to 1000 nM
CC(C)(C)NC(=O)Nc1ccc2c(c1)OCC(=O)N2Cc1cccc(CO)c1	> 1000 nM
CC(C)(C)NC(=O)Nc1ccc2c(c1)CCC(=O)N2Cc1cccc(Cl)c1	< 100 nM
C[C@H]1Oc2cc(NC(=O)NC3CCC(F)(F)CC3)ccc2N(Cc2cccc(C(F)(F)F)n2)C1=O	100 to 1000 nM
CN1Cc2cc(NC(=O)NC(C)(C)C)ccc2N(Cc2cccc(C(F)(F)F)c2)C1=O	< 100 nM
COc1cccc(CN2C(=O)CCc3cc(NC(=O)NC(C)(C)C)ccc32)c1	< 100 nM
